# Target: human calcitonin receptor (CTR) (Homo sapiens)
# Sequence (P30988 25-474): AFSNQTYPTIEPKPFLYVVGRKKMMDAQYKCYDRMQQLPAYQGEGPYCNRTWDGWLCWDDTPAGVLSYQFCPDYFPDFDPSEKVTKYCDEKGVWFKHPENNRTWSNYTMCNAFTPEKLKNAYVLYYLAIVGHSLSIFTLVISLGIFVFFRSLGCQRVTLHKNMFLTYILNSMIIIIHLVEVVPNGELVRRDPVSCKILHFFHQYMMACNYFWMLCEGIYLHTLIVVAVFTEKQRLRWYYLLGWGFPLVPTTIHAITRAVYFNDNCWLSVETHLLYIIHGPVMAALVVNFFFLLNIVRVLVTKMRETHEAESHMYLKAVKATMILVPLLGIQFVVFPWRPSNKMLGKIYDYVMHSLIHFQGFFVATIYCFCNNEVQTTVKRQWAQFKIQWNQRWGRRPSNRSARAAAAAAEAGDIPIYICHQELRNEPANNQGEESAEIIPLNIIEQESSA
# Assay overview: Calcitonin Receptor (CTR) cAMP Assay
# Condition context: COS7-human CTR Clone #2 stable cell line, cAMP dynamic 2 kit, 30 min; read-out: Calcitonin Receptor cAMP Stimulation Activity: EC50
Value kind: log10 of EC50 (log10 of the value in nM)

• COc1cccc2c1CC[C@H]2Nc1nccc2cc(-c3c4c(nc(CCc5ccn6ccnc6c5)c3-c3n[nH]c(=O)o3)[C@@H]3CCCN3C4=O)sc12 [Compound 241] = 0.24
• Cc1cc2cc(-c3c4c(nc(CCc5ccc(F)cc5)c3-c3n[nH]c(=O)o3)C35CC(CN3C4=O)C5)sc2c(N[C@@H]2CCc3c(Cl)cncc32)n1 [Compound 265] = -0.76
• C[C@@H](Nc1nccc2cc(-c3c4c(nc(CCc5ccc(F)cc5)c3-c3n[nH]c(=O)o3)[C@@H]3CCCN3C4=O)sc12)c1ccc(F)c(F)c1 [Compound 227] = 0.22
• COc1c(F)ccc2c1CC[C@H]2Nc1ncnc2cc(-c3c4c(nc(CCc5ccc(F)cc5)c3-c3n[nH]c(=O)o3)C35CC(CN3C4=O)C5)sc12 [Compound 268] = -1.11
• COc1cccc2c1CC[C@H]2Nc1nccc2cc(-c3c(-c4n[nH]c(=O)o4)c(CCc4ccc(F)cc4)nc4c3c(=O)n3n4CCC3)sc12 [Compound 155] = 0.08
• COc1c(F)ccc2c1C[C@H](F)[C@H]2Nc1nccc2cc(-c3c4c(nc(CCc5ccc(F)cc5)c3-c3n[nH]c(=O)o3)[C@@H]3CCCN3C4=O)sc12 [Compound 261] = -0.09
• COc1cccc2c1CC[C@H]2Nc1nccc2cc(-c3c4c(nc(CCc5ccc(F)cc5)c3-c3n[nH]c(=O)o3)[C@H]3COCCN3C4=O)sc12 [Compound 234] = 0.26
• COc1cccc2c1CC[C@H]2Nc1nccc2cc(-c3c4c(nc(CCc5ccccc5C(F)(F)F)c3-c3noc(=O)[nH]3)[C@@H]3CCCN3C4=O)sc12 [Compound 125] = -0.15
• COc1c(F)ccc2c1CC[C@H]2Nc1nccc2sc(-c3c4c(nc(CCc5ccc(F)cc5)c3-c3n[nH]c(=O)o3)C35CC(CN3C4=O)C5)cc12 [Compound 269] = -1.01
• COc1c(F)ccc2c1CC[C@H]2Nc1nc(C)cc2cc(-c3c4c(nc(CCc5ccc(F)cc5)c3-c3n[nH]c(=O)o3)C(C3CC3)NC4=O)sc12 (stereo partly shown) [Compound 302] = -0.87
